# assayedSystem: Muscarinic acetylcholine receptor M4 (Homo sapiens)
# testProtocol: human M4 muscarinic receptor antagonists, primary screen, CHO cells, Fluo-8 calcium fluorescence (AID 624125);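 further: 0% = acetylcholine EC80 with DMSO and 100% = DMSO without agonist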
# conditionDescription: CHO-hM4 cells, ACh EC80, Fluo-8 calcium fluorescence; at 3 µM; hits give high values
The campaign covered roughly 360,000 compounds. About 2,600 (0.72%) were called active. The entries come from a sample that favours actives as a whole.

>  <compound>
O=S1(=O)CCN(Cc2ccccc2)CC1

>  <inhibition>
-1.75% (inactive)

$$$$
>  <compound>
COc1ccc(-c2onc3ccc(C(C)=O)cc23)cc1

>  <inhibition>
-10.7% (inactive)

$$$$
>  <compound>
COc1ccc(N2CC(C(=O)NCCN3C(=O)S/C(=C\c4cccnc4)C3=O)CC2=O)c(OC)c1 (stereo unspecified)

>  <inhibition>
-13.5% (inactive)

$$$$
>  <compound>
C/C(=N\NS(=O)(=O)c1ccc(Cl)cc1)c1ccc(NC(=O)c2ccco2)cc1

>  <inhibition>
7.91% (inactive)

$$$$
>  <compound>
Cc1ccc(C(=O)N(CN2CCCC2=O)c2ccc(F)cc2)cc1

>  <inhibition>
6.56% (inactive)

$$$$
>  <compound>
Cc1cccc(-n2c(O)c(C=Nc3ccccc3N)c(=O)[nH]c2=O)c1

>  <inhibition>
4.12% (inactive)

$$$$
>  <compound>
Nc1c(C(=O)Nc2ccc3c(c2)OCCO3)nnn1Cc1ccccc1

>  <inhibition>
1.65% (inactive)

$$$$
>  <compound>
COc1ccc(CC2(CO)CCN(Cc3cnn(C)c3)CC2)cc1

>  <inhibition>
-5.66% (inactive)

$$$$
>  <compound>
NC(=O)C1(N2CCCC2)CCN(Cc2ccccc2)CC1

>  <inhibition>
-8.47% (inactive)

$$$$
>  <compound>
CCC(CC)C(C(=O)NC1CCCC1)N1CCN(c2cc(C)nc3ccccc23)CC1 (stereo unspecified)

>  <inhibition>
-16.6% (inactive)

$$$$
>  <compound>
CC1=NN(c2cccc(Cl)c2)C(=O)C12CC(C)=C(C)CS2 (stereo unspecified)

>  <inhibition>
-0.34% (inactive)

$$$$

---

# assayedSystem: Muscarinic acetylcholine receptor M4 (Homo sapiens) (UniProt P08173)
# Sequence (P08173 whole entry, looked up): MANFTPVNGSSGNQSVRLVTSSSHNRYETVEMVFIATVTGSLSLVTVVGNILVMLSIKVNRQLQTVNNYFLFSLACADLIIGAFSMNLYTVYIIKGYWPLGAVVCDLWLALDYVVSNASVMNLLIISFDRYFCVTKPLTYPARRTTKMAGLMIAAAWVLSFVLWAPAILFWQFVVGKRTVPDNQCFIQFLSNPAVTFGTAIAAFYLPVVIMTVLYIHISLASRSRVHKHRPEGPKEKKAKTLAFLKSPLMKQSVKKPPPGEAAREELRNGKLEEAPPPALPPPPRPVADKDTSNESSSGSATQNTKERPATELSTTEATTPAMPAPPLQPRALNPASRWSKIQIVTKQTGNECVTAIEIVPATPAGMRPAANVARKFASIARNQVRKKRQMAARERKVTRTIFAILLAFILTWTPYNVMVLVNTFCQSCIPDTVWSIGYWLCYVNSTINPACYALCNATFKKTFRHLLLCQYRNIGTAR
# testProtocol: human M4 muscarinic receptor antagonists, primary screen, CHO cells, Fluo-8 calcium fluorescence (AID 624125);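 further: 0% = acetylcholine EC80 with DMSO and 100% = DMSO without agonist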
# conditionDescription: CHO-hM4 cells, ACh EC80, Fluo-8 calcium fluorescence; at 3 µM
In all, about 360,000 compounds went through this assay and about 2,600 (0.72%) were called active.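 Rule for the calls: active = inhibition above its plate's cutoff, the mean inhibition of sample wells plus 3 SD (cut at about 27% in these data); inactive = the rest.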 The entries come from a sample that favours actives as a whole.
Outcomes: active, inactive

>  <inputSmiles>
CCOC(=O)c1ccccc1NC(=O)COC(=O)CCC(=O)N1CCOCC1

>  <class>
inactive

$$$$
>  <inputSmiles>
CCc1cccc(NC(=O)COC(=O)c2cc(=O)c3ccccc3o2)c1

>  <class>
inactive

$$$$
>  <inputSmiles>
COc1cc(/C=C(/NC(=O)c2ccccc2)C(=O)Nc2cccc(O)c2)c([N+](=O)[O-])cc1OC

>  <class>
inactive

$$$$
>  <inputSmiles>
COc1cc(/C=C(\C#N)C(=O)Nc2ccc3ccccc3c2)c([N+](=O)[O-])cc1OC

>  <class>
active

$$$$
>  <inputSmiles>
COc1cc(NC(=O)COC(=O)CSc2ccc3ccccc3c2)c(C)cc1[N+](=O)[O-]

>  <class>
inactive

$$$$

---

# assayedSystem: Muscarinic acetylcholine receptor M4 (Homo sapiens)
# testProtocol: human M4 muscarinic receptor antagonists, primary screen, CHO cells, Fluo-8 calcium fluorescence (AID 624125);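 further: 0% = acetylcholine EC80 with DMSO and 100% = DMSO without agonist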
# conditionDescription: CHO-hM4 cells, ACh EC80, Fluo-8 calcium fluorescence; at 3 µM; hits give high values
Out of some 360,000 compounds screened, about 2,600 (0.72%) were called active. This excerpt belongs to a sample that is enriched for actives.
Here the recorded inhibition is given for each entry.

>  <compound>
c1ccc(C(=NNc2nc3ccccc3s2)c2ccccn2)cc1

>  <assayedSystem>
Muscarinic acetylcholine receptor M4 (Homo sapiens)

>  <inhibition [%]>
56.1

$$$$
>  <compound>
O=C1CCCC(O)=C1N=Nc1ccc2ncsc2c1

>  <assayedSystem>
Muscarinic acetylcholine receptor M4 (Homo sapiens)

>  <inhibition [%]>
9.09

$$$$
>  <compound>
COC(=O)C1=C(N)Oc2cc(C)[nH]c(=O)c2C1c1ccc(Cl)cc1 (configuration not stated)

>  <assayedSystem>
Muscarinic acetylcholine receptor M4 (Homo sapiens)

>  <inhibition [%]>
0.29

$$$$
>  <compound>
CCOc1ccc(NS(=O)(=O)c2ccc(C(=O)NC3CCN(Cc4ccccc4)CC3)cc2)cc1

>  <assayedSystem>
Muscarinic acetylcholine receptor M4 (Homo sapiens)

>  <inhibition [%]>
6.63

$$$$
>  <compound>
CN(C)C1=NC[C@H](Cc2ccccc2)N1CCc1ccc(F)cc1

>  <assayedSystem>
Muscarinic acetylcholine receptor M4 (Homo sapiens)

>  <inhibition [%]>
-0.99

$$$$
>  <compound>
Cc1ccc(C(=O)NCC(c2cccs2)N(C)C)cc1S(=O)(=O)N1CCOCC1 (configuration not stated)

>  <assayedSystem>
Muscarinic acetylcholine receptor M4 (Homo sapiens)

>  <inhibition [%]>
8.72

$$$$
>  <compound>
O=C(COc1ccc(S(=O)(=O)NCc2ccccc2)cc1)N1CCOCC1

>  <assayedSystem>
Muscarinic acetylcholine receptor M4 (Homo sapiens)

>  <inhibition [%]>
4.93

$$$$
>  <compound>
CCOc1ccc(NS(=O)(=O)c2ccc(C(=O)NCC(c3ccccc3OC)N3CCCC3)cc2)cc1 (configuration not stated)

>  <assayedSystem>
Muscarinic acetylcholine receptor M4 (Homo sapiens)

>  <inhibition [%]>
40.8

$$$$
>  <compound>
CCOCCCNC(=O)C(NC(=O)c1ccc(=O)[nH]c1)c1ccc(C)cc1 (configuration not stated)

>  <assayedSystem>
Muscarinic acetylcholine receptor M4 (Homo sapiens)

>  <inhibition [%]>
-5.59

$$$$
>  <compound>
CC1Cc2[nH][nH]c(=O)c2C(C2CCCC2)O1 (configuration not stated)

>  <assayedSystem>
Muscarinic acetylcholine receptor M4 (Homo sapiens)

>  <inhibition [%]>
3.85

$$$$
>  <compound>
COc1ccc(C(CNC(=O)c2cccc(S(=O)(=O)Nc3ccc(Br)cc3)c2)N(C)C)cc1 (configuration not stated)

>  <assayedSystem>
Muscarinic acetylcholine receptor M4 (Homo sapiens)

>  <inhibition [%]>
1.87

$$$$
>  <compound>
COc1ccccc1C(CNC(=O)c1cccc(NS(=O)(=O)c2ccc(Br)cc2)c1)N(C)C (configuration not stated)

>  <assayedSystem>
Muscarinic acetylcholine receptor M4 (Homo sapiens)

>  <inhibition [%]>
10.7

$$$$
>  <compound>
COc1ccccc1CNC(=O)c1ccc(Cl)c(S(=O)(=O)N2CCCC2)c1

>  <assayedSystem>
Muscarinic acetylcholine receptor M4 (Homo sapiens)

>  <inhibition [%]>
-5.41

$$$$
>  <compound>
CC(c1ccccn1)N(C)C(=O)c1ccc2nc(Cc3cccc(Cl)c3)oc2c1 (configuration not stated)

>  <assayedSystem>
Muscarinic acetylcholine receptor M4 (Homo sapiens)

>  <inhibition [%]>
0.98

$$$$
>  <compound>
COc1ccc(CN2CCCC(C(=O)N3CCCCC3)C2)cc1 (configuration not stated)

>  <assayedSystem>
Muscarinic acetylcholine receptor M4 (Homo sapiens)

>  <inhibition [%]>
1.76

$$$$
>  <compound>
O=C(O)C(c1cccs1)C1(O)CCCCC1 (configuration not stated)

>  <assayedSystem>
Muscarinic acetylcholine receptor M4 (Homo sapiens)

>  <inhibition [%]>
5.22

$$$$
>  <compound>
Cc1n[nH]c(=O)c2c(NC(=O)CSc3cc(Cl)ccc3Cl)oc(C)c12

>  <assayedSystem>
Muscarinic acetylcholine receptor M4 (Homo sapiens)

>  <inhibition [%]>
-3.66

$$$$
>  <compound>
CCCC[C@@H]1CN=C(N)N1CCc1cc(C(F)(F)F)cc(C(F)(F)F)c1

>  <assayedSystem>
Muscarinic acetylcholine receptor M4 (Homo sapiens)

>  <inhibition [%]>
31.9

$$$$
>  <compound>
O=C(O)C(c1ccccc1)C1(O)CCCCC1 (configuration not stated)

>  <assayedSystem>
Muscarinic acetylcholine receptor M4 (Homo sapiens)

>  <inhibition [%]>
-13.2

$$$$
>  <compound>
COc1ccc(C(=O)OCC(=O)NCC2CCCO2)cc1[N+](=O)[O-] (configuration not stated)

>  <assayedSystem>
Muscarinic acetylcholine receptor M4 (Homo sapiens)

>  <inhibition [%]>
-10.6

$$$$
>  <compound>
Cc1ccccc1C(OCCN(C)C)C1CCCCC1 (configuration not stated)

>  <assayedSystem>
Muscarinic acetylcholine receptor M4 (Homo sapiens)

>  <inhibition [%]>
83

$$$$
>  <compound>
COC(=O)c1ccccc1NC(=O)C1CC(=O)N(c2ccc(OC)cc2)C1 (configuration not stated)

>  <assayedSystem>
Muscarinic acetylcholine receptor M4 (Homo sapiens)

>  <inhibition [%]>
-8.44

$$$$

Where do the numbers come from? From PubChem BioAssay AID624125.
